Test system: Caco-2
Assay comment: MTT anticancer assay, colon cancer cells
Assay type: cell-based, human
Experimental parameters: MTT; mean ± SEM; read-out: Caco-2 IC50
Property measured: IC50 (µM)
Supply the numeric figure in µM, leaving out any unit text.

I would be grateful if you could share the reported IC50 for CN1CCN(Cn2nc(Cn3cc(-c4ccccc4)nn3)n(-c3ccccc3)c2=S)CC1 . 0.609

----------
Target chain: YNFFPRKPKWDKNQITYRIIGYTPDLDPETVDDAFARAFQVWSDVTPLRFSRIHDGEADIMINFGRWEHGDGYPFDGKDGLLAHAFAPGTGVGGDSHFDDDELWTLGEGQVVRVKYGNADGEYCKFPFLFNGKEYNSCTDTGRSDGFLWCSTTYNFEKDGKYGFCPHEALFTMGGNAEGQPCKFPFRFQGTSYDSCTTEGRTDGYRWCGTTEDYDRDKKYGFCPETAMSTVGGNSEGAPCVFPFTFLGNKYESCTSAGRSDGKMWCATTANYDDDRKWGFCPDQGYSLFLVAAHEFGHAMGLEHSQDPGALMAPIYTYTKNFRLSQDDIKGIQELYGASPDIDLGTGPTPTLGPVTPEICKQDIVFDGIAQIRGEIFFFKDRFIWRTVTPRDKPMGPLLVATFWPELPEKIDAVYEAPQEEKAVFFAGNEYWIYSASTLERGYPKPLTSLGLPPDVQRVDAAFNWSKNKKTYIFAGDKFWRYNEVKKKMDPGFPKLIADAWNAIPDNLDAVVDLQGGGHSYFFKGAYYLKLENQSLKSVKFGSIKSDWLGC
Each record here notes measured IC50.
Field: value (include unit after the number)

COc1ccc(S(=O)(=O)N(CC(=O)NO)CC(C)C)cc1 [NNGH] ... 298 nM

Now take the following compound into account.
I would be grateful if you could share the reported IC50 for S=c1n(CN2CCN(Cn3nc(Cn4cc(-c5ccccc5)nn4)n(-c4ccccc4)c3=S)CC2)nc(Cn2cc(-c3ccccc3)nn2)n1-c1ccccc1 [Compound 15] . 468 nM

----------
Tested on: Caco-2
Assay comment: MTT anticancer assay, colon cancer cells
Assay type: cell-based, human
Experimental parameters: Homo sapiens, Caco-2, MTT; mean ± SEM; read-out: Caco-2 IC50
Property measured: IC50 (µM)
Supply the numeric figure in µM, leaving out any unit text.

Here is how some compounds turned out for IC50.
O=c1[nH]cc(F)c(=O)[nH]1 [5-Fluorouracil, reference compound] ... 0.437
CCn1c(Cn2cc(-c3ccccc3)nn2)nn(CN2CCN(C)CC2)c1=S ... 1.73

Under Caco-2: IC50 value of CN1CCN(Cn2nc(Cn3cc(-c4ccccc4)nn3)n(-c3ccccc3)c2=S)CC1 ? 0.61

How about this compound: S=c1n(CN2CCCCC2)nc(Cn2cc(-c3ccccc3)nn2)n1-c1ccccc1 2.29

----------
Tested on: MDA-MB 231
Assay comment: MTT anticancer assay, breast cancer cells
Format: cell-based
Experimental parameters: Homo sapiens, MDA-MB-231; MTT; mean ± SEM; read-out: MDA-MB 231 IC50
Property measured: pIC50
# pIC50: negative log10 of molar concentration; output just the value

S=c1n(CN2CCOCC2)nc(Cn2cc(-c3ccccc3)nn2)n1-c1ccccc1 ... 5.63
S=c1n(CN2CCCCC2)nc(Cn2cc(-c3ccccc3)nn2)n1-c1ccccc1 ... 5.76
CCn1c(Cn2cc(-c3ccccc3)nn2)nn(CN2CCN(C)CC2)c1=S ... 5.69
CN1CCN(Cn2nc(Cn3cc(-c4ccccc4)nn3)n(-c3ccccc3)c2=S)CC1 ... 6.13
CCn1c(Cn2cc(-c3ccccc3)nn2)nn(CN2CCOCC2)c1=S ... 5.94

I would be grateful if you could share the reported pIC50 for CCn1c(Cn2cc(-c3ccccc3)nn2)nn(CN2CCCCC2)c1=S . 5.86

How about this compound: O=c1[nH]cc(F)c(=O)[nH]1 [5-Fluorouracil, reference compound] 4.68
